Entry source: paper PMC4336329

measurementTarget: human ether-à-go-go-related gene (hERG) potassium channel (human, UniProt Q12809);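 also: peak tail current of the secondary pulse compared with the same well before compound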
Sequence (Q12809 whole entry, looked up): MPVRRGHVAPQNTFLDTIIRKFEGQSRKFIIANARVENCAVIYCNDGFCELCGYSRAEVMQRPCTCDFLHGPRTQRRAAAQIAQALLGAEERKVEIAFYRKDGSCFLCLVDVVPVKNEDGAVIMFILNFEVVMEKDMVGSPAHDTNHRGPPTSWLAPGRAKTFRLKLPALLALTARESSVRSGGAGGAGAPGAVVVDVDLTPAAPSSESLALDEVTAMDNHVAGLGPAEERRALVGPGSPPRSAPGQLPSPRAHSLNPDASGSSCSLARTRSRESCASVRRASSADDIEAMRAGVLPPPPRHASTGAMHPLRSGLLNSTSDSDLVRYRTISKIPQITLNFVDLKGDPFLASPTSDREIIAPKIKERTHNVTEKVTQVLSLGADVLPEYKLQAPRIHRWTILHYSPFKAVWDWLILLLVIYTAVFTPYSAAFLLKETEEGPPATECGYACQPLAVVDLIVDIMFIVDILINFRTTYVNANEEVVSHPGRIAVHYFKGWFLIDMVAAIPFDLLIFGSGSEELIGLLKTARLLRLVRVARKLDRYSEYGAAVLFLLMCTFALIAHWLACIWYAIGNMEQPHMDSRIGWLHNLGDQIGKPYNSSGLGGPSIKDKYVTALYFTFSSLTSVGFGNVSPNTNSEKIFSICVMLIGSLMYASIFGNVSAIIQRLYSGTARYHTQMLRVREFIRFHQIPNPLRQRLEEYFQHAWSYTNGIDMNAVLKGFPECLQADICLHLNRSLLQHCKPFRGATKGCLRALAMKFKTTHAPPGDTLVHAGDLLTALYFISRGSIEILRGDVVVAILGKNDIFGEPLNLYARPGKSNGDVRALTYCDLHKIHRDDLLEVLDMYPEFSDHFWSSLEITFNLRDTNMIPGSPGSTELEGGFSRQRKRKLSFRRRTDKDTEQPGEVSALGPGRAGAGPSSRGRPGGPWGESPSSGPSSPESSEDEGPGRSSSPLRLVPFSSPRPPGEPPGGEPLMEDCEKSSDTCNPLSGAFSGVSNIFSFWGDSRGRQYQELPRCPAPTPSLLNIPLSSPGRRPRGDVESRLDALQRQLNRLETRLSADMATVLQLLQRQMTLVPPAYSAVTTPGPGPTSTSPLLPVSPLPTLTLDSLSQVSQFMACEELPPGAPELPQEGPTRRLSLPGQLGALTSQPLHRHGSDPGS
assayProcedure: primary screen, population patch clamp on CHO cells stably expressing hERG; higher = less effect of the substance
Hit rate of the full screen: of about 310,000 compounds, about 14,000 (4.5%) showed an effect of 50% or more. Effects have a minus sign here. The sample as a whole holds a higher share of strong results than the screen did.
Listed below: hERG current change (%, negative = inhibition) at 10uM values for each entry.
// return numeric value only (unit: %, not printed)

C=C[C@]1(C)C[C@@H](OC(=O)CSCCN(CC)CC)[C@]2(C)C(C)CC[C@]3(CCC(=O)[C@H]32)[C@@H](C)[C@@H]1O.O=C(O)/C=C/C(=O)O (stereo partly drawn) : -68.3

q: Entry under review: COc1ccccc1C(=O)Nc1ccc(OCC(=O)N2CCCCC2)cc1 . Reported hERG current change (%, negative = inhibition) at 10uM?
a: -2.87

q: Entry under review: COc1cccc(NC(=O)CN(C)CC(=O)c2c(N)n(Cc3ccccc3)c(=O)n(C)c2=O)c1 . Reported hERG current change (%, negative = inhibition) at 10uM?
a: -8.12

q: Entry under review: Cc1ccc(C(=O)Nc2cc(C)c(OCC(=O)N3CCOCC3)c(C)c2)cc1 . Reported hERG current change (%, negative = inhibition) at 10uM?
a: -11.3

q: Entry under review: O=C1CCC(=O)N1c1ccc(NC2CCN(Cc3ccccc3)CC2)c([N+](=O)[O-])c1 . Reported hERG current change (%, negative = inhibition) at 10uM?
a: 2.23

q: Entry under review: C=C[C@]1(C)C[C@@H](OC(=O)CSCCN(CC)CC)[C@]2(C)C(C)CC[C@]3(CCC(=O)[C@H]32)[C@@H](C)[C@@H]1O (stereo partly drawn) . Reported hERG current change (%, negative = inhibition) at 10uM?
a: -61.9

q: Entry under review: CCn1c(=O)c(C(=O)CN2CCCc3ccccc32)c(N)n(Cc2ccccc2)c1=O . Reported hERG current change (%, negative = inhibition) at 10uM?
a: -6.1

q: Entry under review: Cc1ccc(Cl)cc1NC(=O)c1ccccc1OCC(=O)N1CCOCC1 . Reported hERG current change (%, negative = inhibition) at 10uM?
a: -63.6

q: Entry under review: COCCN1CC(C(=O)NCc2ncccc2C)CCC1=O (stereo not drawn) . Reported hERG current change (%, negative = inhibition) at 10uM?
a: 22.6

q: Entry under review: Cc1cccc(NC(=O)c2ccccc2OCC(=O)N2CCOCC2)c1C . Reported hERG current change (%, negative = inhibition) at 10uM?
a: -6.62

q: Entry under review: O=[N+]([O-])c1ccc(NC2CCN(Cc3ccccc3)CC2)c([N+](=O)[O-])c1 . Reported hERG current change (%, negative = inhibition) at 10uM?
a: -85.4

q: Entry under review: CC(=O)N1CCN(C(=O)COc2ccccc2C(=O)Nc2ccccc2)CC1 . Reported hERG current change (%, negative = inhibition) at 10uM?
a: -53.2

q: Entry under review: COCCNC(=O)CN(C(=O)CCC(=O)Nc1ccccn1)c1ccc(F)c(Cl)c1 . Reported hERG current change (%, negative = inhibition) at 10uM?
a: 4.59

q: Entry under review: Cc1cc(OCCCn2ccnc2)cc(C(C)C)c1 . Reported hERG current change (%, negative = inhibition) at 10uM?
a: -14.4

q: Entry under review: O=c1[nH]c(Nc2ccccc2Cl)cc2ccccc12 . Reported hERG current change (%, negative = inhibition) at 10uM?
a: 10.9

q: Entry under review: O=C(Nc1cccc(Cl)c1Cl)c1ccccc1OCC(=O)N1CCOCC1 . Reported hERG current change (%, negative = inhibition) at 10uM?
a: -13.5

q: Entry under review: O=C1C2CCCCC2C(=O)N1c1ccc(NC2CCN(Cc3ccccc3)CC2)c([N+](=O)[O-])c1 (stereo not drawn) . Reported hERG current change (%, negative = inhibition) at 10uM?
a: -42.1

q: Entry under review: CCCCOc1ccc(C(=O)Nc2cc(C)c(OCC(=O)N3CCOCC3)c(C)c2)cc1 . Reported hERG current change (%, negative = inhibition) at 10uM?
a: -24.8
